Assay: Solubility test of argatroban in water with various compounds (shaken with excess argatroban, HPLC)
Assay type: physicochemical
Settings: phosphate buffer, pH 7, aqueous buffer, argatroban with caffeine 1.0 W/V %; phosphate buffer pH 7.0, 25° C., 12 hours
recorded.metric: solubility thermodynamic at 12 h (µg/mL)
Report as a plain number; the unit µg/mL is understood.

For the compound shown here, CC1CNc2c(cccc2S(=O)(=O)N[C@@H](CCCNC(=N)N)C(=O)N2CC[C@@H](C)C[C@@H]2C(=O)O)C1.O (mixture of isomers) [argatroban] , give the reported solubility thermodynamic at 12 h.
2000

----------
Experiment: Solubility test of argatroban in water with various compounds (shaken with excess argatroban, HPLC)
Format: physicochemical
Settings: phosphate buffer, pH 7, aqueous buffer, argatroban, no compound added; phosphate buffer pH 7.0, 25° C., 12 hours
recorded.metric: solubility thermodynamic at 12 h (µg/mL)
Report as a plain number; the unit µg/mL is understood.

For the compound shown here, CC1CNc2c(cccc2S(=O)(=O)N[C@@H](CCCNC(=N)N)C(=O)N2CC[C@@H](C)C[C@@H]2C(=O)O)C1.O (mixture of isomers) , give the reported solubility thermodynamic at 12 h.
930
